tested on: MALME-3M melanoma; assay: NCI tumour cell line growth inhibition, 48 h
OBSERVABLE: log10(TGI) (log10 of the value in µM)
Recorded TGI (log10, µM)

{"COMPOUND": "CN(CCNC(=O)c1cn(C)c2c1ccc1cc(Cl)ccc12)CCNC(=O)c1cn(C)c2c1ccc1cc(Cl)ccc12", "OBSERVABLE": "log10(TGI)", "MEASURED_VALUE": 0.69}
{"COMPOUND": "Cc1cc(Br)c2nsnc2c1[N+](=O)[O-]", "OBSERVABLE": "log10(TGI)", "MEASURED_VALUE": 0.82}

input: Find the measured log10(TGI) of [CH3][Sn]([CH3])([CH3])[O]C(=O)C(O)c1ccccc1 (stereo unspecified) and report it.
output: 1.39

input: Find the measured log10(TGI) of `CCOC(=O)c1c(SC)nc(-c2ccc(Cl)cc2)sc1=N` and report it.
output: 1.69

input: Find the measured log10(TGI) of `N=c1oc2ccc([N+](=O)[O-])cc2cc1C(=O)Nc1ccccn1` and report it.
output: 1.89

input: Find the measured log10(TGI) of `C[C@@H](Oc1cc(-c2cnn(C3CC4(CNC4)C3)c2)cnc1N)c1c(Cl)ccc(F)c1Cl` and report it.
output: 0.59

input: Find the measured log10(TGI) of `O=Cc1c[nH]c2ccc(-c3csc4ccccc34)cc12` and report it.
output: 1.57
